Origin of measurements: the METLIN SMRT retention time set (Domingo-Almenara et al. 2019)

test: gradient 5% acetonitrile 3 min, to 50% in 2 min, to 85% in 15 min, held 3 min, 100 µL/min; conditions: column: Zorbax Extend-C18 2.1 x 50 mm; eluents: water / acetonitrile, 0.1% formic acid
Parameter measured: RP-LC retention time (s)
Answer in s, number only, no unit symbol.

Known RP-LC retention time results, listed for orientation:
1) Cc1cc(=O)c2cc(C(=O)Nc3nc4ccccc4s3)ccc2[nH]1 ... 702
2) CC(NC(=O)Cc1nnc(-c2ccc3ncccc3c2)o1)c1ccccc1 (stereo not drawn) ... 690
3) O=C(O)C1CCCN1C(=O)c1ccc(N2C(=O)C3C4C=CC(C4)C3C2=O)cc1 (stereo not drawn) ... 642
4) COCCCNC(=O)NC(C(=O)N1CCc2ccccc21)c1ccccc1 (stereo not drawn) ... 798
5) CCCn1cnc2ccc(-c3noc(-c4cccc(OC)c4)n3)cc21 ... 728

Next item in the queue.
// "CN(C(=O)CC(=O)Nc1ccc2nc3n(c(=O)c2c1)CCCCC3)c1ccccc1F" : RP-LC retention time value = 682

----------
assay: gradient 5% acetonitrile 3 min, to 50% in 2 min, to 85% in 15 min, held 3 min, 100 µL/min; conditions: column: Zorbax Extend-C18 2.1 x 50 mm; eluents: water / acetonitrile, 0.1% formic acid
Entries and their RP-LC retention time values follow.
Answer in s, number only, no unit symbol.

Known RP-LC retention time results, listed for orientation:
1. Cc1nc(C)c(CCNS(=O)(=O)c2cc(Cl)ccc2Cl)s1 ... 683
2. CN1C(=O)C(CC(=O)N2CCCCC2)=C2CCCCC21 (centres undefined) ... 677
3. O=C1CCCc2c1cc(C(=O)Nc1ccc(F)cc1F)c(=O)n2-c1ccc(F)cc1 ... 785

Next item in the queue.
// "CCOC(=O)c1c(C)[nH]c(C)c1S(=O)(=O)N1CCC(C(=O)NCCc2sccc2C)CC1" : RP-LC retention time value = 794

----------
assay: gradient 5% acetonitrile 3 min, to 50% in 2 min, to 85% in 15 min, held 3 min, 100 µL/min; details: column: Zorbax Extend-C18 2.1 x 50 mm; eluents: water / acetonitrile, 0.1% formic acid
Entries and their RP-LC retention time values follow.
Kindly format the answer as number then unit.

Known RP-LC retention time results, listed for orientation:
1) O=C(NCCc1cccs1)C1CCN(c2cc(N3CCCCC3)ncn2)CC1 ... 672 s
2) CCCn1cc(CCNS(=O)(=O)c2cccc(Cl)c2C)c2cccnc21 ... 914 s
3) CC(=O)c1cccc(NC2=NS(=O)(=O)C(c3cccc(Cl)c3)=C2C)c1 ... 902 s

Next item in the queue.
// "Cc1ccc(-c2nc3cnccn3c2Nc2ccc3c(c2)OCCO3)cc1" : RP-LC retention time value = 841 s

----------
assay: gradient 5% acetonitrile 3 min, to 50% in 2 min, to 85% in 15 min, held 3 min, 100 µL/min; settings: column: Zorbax Extend-C18 2.1 x 50 mm; eluents: water / acetonitrile, 0.1% formic acid
Parameter measured: RP-LC retention time (s)
Answer in s, number only, no unit symbol.

1) O=C(Nc1ccccc1)C1CCc2sc(C(=O)N3CCOCC3)cc2C1 (stereo not given) ... 708
2) CC(CCNC(=O)c1cc(S(=O)(=O)N2CCCC2)ccc1Cl)N1CCCC1 (stereo not given) ... 601
3) Cc1ccccc1OCC(=O)NC1CCN(Cc2c(C)noc2C)CC1 ... 615
4) COCC(=O)Nc1ccc(SCc2nnc(-c3ccc4c(c3)OCO4)o2)cc1 ... 789
5) O=C(c1n[nH]c2c1CCCC2)N1CCCCC1 ... 695
6) Cc1ccc(CNS(=O)(=O)c2ccc3c(c2)CCCC(=O)N3)cc1 ... 751

// "CCc1ccccc1S(=O)(=O)Nc1ccc2c(c1)nc(-c1ccc(C(=O)N(CC)CC)cc1)n2C" : RP-LC retention time value = 739

// O=C(Nc1nnc(-c2ccno2)o1)C1CCCN(S(=O)(=O)c2ccc(Cl)s2)C1 (stereo not given) : RP-LC retention time value = 757
